This section presents molecules with their documented MTD values.
assay: in vivo; format: in vivo, rats (Sprague Dawley); conditions: in vivo; rat, oral; dose at which the maximum effect is achieved; read-out: Maximum effect: Dose (maximum tolerated dose)
Express your answer in mg/kg, writing the number without its unit.

// solved cases for MTD follow
molecule	MTD, mg/kg
Clc1ccc(CN2CC3CC(CN(Cc4ccccc4)C3)C2)cc1Cl	215
Clc1cccc(CN2CC3CC(CN(Cc4ccccc4)C3)C2)c1	46.4
Fc1ccc(CN2CC3CC(CN(Cc4ccccc4)C3)C2)cc1	100
c1ccc(CN2CC3CC(C2)CN(C(c2ccccc2)c2ccccc2)C3)cc1	215
FC(F)(F)c1cccc(CN2CC3CC(CN(Cc4ccccc4)C3)C2)c1	100

Form: molecule = c1ccc(CN2CC3CC(C2)CN(CC(c2ccccc2)c2ccccc2)C3)cc1 ; MTD = 46.4

Form: molecule = C=C[C@H]1C[N@@]2CC[C@H]1C[C@@H]2[C@@H](O)c1ccnc2ccc(OC)cc12 [Quinidine, reference compound] ; MTD = 215
